Task for the reader: assign each of the following molecules its reported melting point.

Reference set, count: 5
1) COc1ccc2ncc(C#N)c(Nc3cc(O)c(Cl)cc3F)c2c1 ... 228 to 230 °C
2) O=C(c1ccc(-c2ncc[nH]2)cc1)N1CCN(S(=O)(=O)c2ccc3cc(Cl)ccc3c2)CC1 ... 159 to 161 °C
3) CNC(=O)c1cn(C)c(=O)cc1Nc1ccc(I)cc1F ... 252 to 254 °C
4) CC(C)(C)OC(=O)NCCc1ccc(OCCC2Oc3ccccc3N(Cc3ccccc3Cl)C2=O)cc1 (stereo unspecified) ... 108 to 111 °C
5) COC(=O)NNC(=O)CCCl ... 129 °C

The following molecules each have a reported value; give each one's melting point.
1. CC(C)(C)c1ccc(C(=O)Nc2cc(Cl)c(N)cc2O)cc1
2. CNC(=S)Nc1cc(OC)c(-c2ccc(C[C@H](NC(=O)c3c(Cl)cccc3Cl)C(=O)O)cc2)c(OC)c1
3. Cc1cc(Sc2ccccc2)ccc1[N+](=O)[O-]
4. CSc1nc2ccc(C)cc2c2nn(-c3ccccc3)c(=O)n12

164 to 165 °C
197 to 198 °C
69 to 75 °C
> 400 °C

The following molecules each have a reported value; give each one's melting point.
1. CC(=O)OCC1OC(c2cnc(Cl)nc2Cl)C(OC(C)=O)C1OC(C)=O (stereo unspecified)
2. CCOC(OCC)P(=O)(O)CCCN(C)Cc1ccc(Cl)cc1
3. O=C1C(=O)N2c3ccccc3Sc3cccc1c32

1. 75 to 78 °C
2. 170 °C
3. 203 to 206 °C

The following molecules each have a reported value; give each one's melting point.
1. CCCc1nc2c(N)nc3ccccc3c2n1CC1(O)CCSCC1
2. O=C(CS(=O)(=O)c1ccccc1)NC1CCN(Cc2ccc(Cl)c(Cl)c2)CC1
3. Clc1cc(Cl)nc(-n2cnc3ccccc32)n1
4. CSc1nccc(-n2nnc3ccccc32)n1
5. Cn1cc(-c2ccc(Br)cc2)c(=O)c(-c2cccc(C(F)(F)F)c2)c1
6. CC(=O)c1c(O)cccc1OCC(O)COc1c(C)cccc1C (stereo unspecified)

1: 243 to 244 °C; 2: 97 to 99 °C; 3: 173 to 175 °C; 4: 180 to 182 °C; 5: 144 to 146 °C; 6: 88 to 90 °C

The following molecules each have a reported value; give each one's melting point.
1. COC(=O)c1sc2c(c1N=C1CCCN1C)c1ccccc1c(=O)n2-c1ccccc1C
2. CCOC1=C(N(C(C)=O)C(C)C)C(=O)c2cnn(C)c2C1=O
3. COc1ccc(S(=O)(=O)Nc2ccccc2Cl)cc1OC1CCCC1
4. OCCc1ccc2c(c1)sc1ccc(Cl)cc12
5. O=c1oc(-c2ccc(NS(=O)(=O)c3ccccc3)cc2)cc(O)c1SCCc1ccccc1

1. 209 to 211 °C
2. 154 to 155 °C
3. 113 to 115 °C
4. 98 to 100 °C
5. 89 to 91 °C

The following molecules each have a reported value; give each one's melting point.
1. O=C(O)Cc1ccc(NC(=O)C(COc2cccnc2)NS(=O)(=O)c2ccc(Br)cc2)cc1 (racemic)
2. CC(C)(C)[Si](C)(C)CCCSCCNC(=O)n1cc(F)c(=O)[nH]c1=O
3. CC(O)C#CC1(C)C=CN=C(N)N1 (stereo unspecified)

1: 205 to 207 °C; 2: 123 to 124 °C; 3: 155 °C

The following molecules each have a reported value; give each one's melting point.
1. Cc1cccc(-n2ncc(C)c2-c2cc3cnccc3s2)n1
2. CCN1C(=O)CCCc2cc(Nc3ncc(Cl)c(Nc4ccccc4-n4cccn4)n3)c(OC)cc21

["155 to 156 °C", "82 to 85 °C"]

The following molecules each have a reported value; give each one's melting point.
1. CCOC(=O)c1c([N+](=O)[O-])ccc(OC)c1OC
2. CC(=O)c1ccc(N=C(C)c2ccccc2)cc1

["70 to 72 °C", "205 °C"]

Determine from records and report melting point for Oc1ccc(-c2nc(-c3ccccc3)[nH]c2-c2ccc(O)cc2)cc1 327 to 330 °C

* * *

Task for the reader: assign each of the following molecules its reported melting point.

1) COc1nc2cc(Cl)cc(C)c2nc1OC ... 94 to 96 °C
2) O=C(O)C(Cc1ccccc1)C(=O)N[C@H](CO)Cc1c[nH]c2ccccc12 (some centres undefined) ... 130 to 131 °C
3) O=C(c1ccc([N+](=O)[O-])cc1)N1CCN(c2ccncc2)CC1 ... 158 to 160 °C

Consider the additional molecule presented here.
Determine from records and report melting point for Cc1c(-c2ccccc2)nc2n1C(C)(C)Cc1ccccc1C2OC1CCN(C)CC1 (centres undefined) 152 °C

* * *

Reported metric: melting point

1. COc1ccc2[nH]c(S(=O)Cc3cc(N(C)C)ncn3)nc2c1 (centres undefined) ... 104 to 106 °C

The following compounds each have a reported value; give each one's melting point.
1. N#Cc1ccc(Oc2ccc(F)cc2)nc1
2. COc1cc(NC(C)=O)c(Cl)cc1C(=O)N[C@H]1CCN(CCCOc2ccc(F)cc2)C[C@H]1OC (relative stereo)
3. Cc1ccc(S(=O)(=O)N2[C@@H](c3ncon3)CC[C@H]2c2ccc(F)cc2)cc1 (racemic)
4. CCn1c(=O)c(Oc2ccc(F)cc2F)cc2cnc(S(C)(=O)=O)nc21
5. CCCOC(=O)C(C)Oc1ccc(Oc2cnc3cc(F)ccc3n2)cc1F (centres undefined)

["120 to 121 °C", "176 °C", "165 °C", "128 to 129 °C", "49 to 51 °C"]

The following compounds each have a reported value; give each one's melting point.
1. O=C(N[C@H]1CCOC1=O)[C@H](Cc1ccccc1)NS(=O)(=O)c1cccc2ccccc12
2. CC(C)(C)OC(=O)C[C@H](NC(=O)CNC(=O)c1csc(NC(=O)NCc2ccccc2)n1)C(=O)Nc1ccccc1C(=O)OC(C)(C)C

["93 to 94 °C", "116 °C"]

* * *

Reported metric: melting point

Reference set, count: 10
1. CCC(=O)NC(=O)c1cc([N+](=O)[O-])cnc1C ... 171 to 173 °C
2. COc1cc2ncnc(N3CCN(C(=S)Nc4ccccn4)CC3)c2cc1OC ... 208 to 210 °C
3. NCCc1c[nH]c2ccc(Cc3nnn(Cc4ccccc4)n3)cc12 ... 181 to 183 °C
4. COc1noc2c1CN(C(C)=O)CC2 ... 40 to 42 °C
5. CC(=O)SC1NC(=O)C1Cc1ccccc1 (stereo not given) ... 42 to 43 °C
6. CCCn1cc(S(C)=O)c(=O)c2ccccc21 (stereo not given) ... 126 to 128 °C
7. CCOC(=O)c1c(C(=O)Cc2c(CCNCCc3ccccc3)cc3c(c2OC)OCO3)ccc(OC)c1OC ... 102 to 104 °C
8. CCCCCc1ncc(C(=O)OCC)c(O)n1 ... 127 to 129 °C
9. CCOC(=O)c1nn(-c2ccc(NC)cc2)c(=O)c2c(N)scc12 ... 211 to 213 °C
10. COC(=O)C(C)(C)Cc1ccc(OCc2oc(-c3ccc(C(F)(F)F)cc3)cc2C(=O)O)cc1 ... 153 to 155 °C

The following molecules each have a reported value; give each one's melting point.
1. COc1ccc(-c2oncc2CCC(=O)O)cc1
2. CCCCCCCCCCCCCCOc1ccc(OCc2ccccc2)c(C(=O)O)c1
3. CN1CCC(Cn2sc3cc(Cl)ccc3c2=O)CC1
4. C[C@]12C[C@H](c3ccc(OCCCCCS(=O)(=O)CCCc4c(F)c(F)c(F)c(F)c4F)cc3)[C@@H]3c4ccc(O)cc4CC[C@H]3[C@@H]1CC[C@@H]2O
5. CC(O)C(=O)c1ccc(C(=O)Nc2ccccc2N)c(N)c1 (stereo not given)

1. 101 to 102 °C
2. 73 to 74 °C
3. 86 °C
4. 130 °C
5. 198 °C

* * *

Reported metric: melting point

1) Cc1c(-c2ccc(C(=O)c3ccc(-c4sc5ccccc5c4C)nc3)cn2)sc2ccccc12 ... 120 to 121 °C
2) Cn1ncc(NCCN2CCC(c3noc4cc(F)ccc34)CC2)cc1=O ... 200 to 202 °C

Determine from records and report melting point for CC12C=CCC1C1CCC3=CC(=O)CCC3=C1CC2 (stereo not drawn) 87 to 92 °C

* * *

Reported metric: melting point

1) O=C(NC[C@H]1CN(c2ccc(N3CCC4(CC3)OCCO4)c(F)c2)C(=O)O1)C(Cl)Cl ... 175 to 178 °C

The following compounds each have a reported value; give each one's melting point.
1. COc1c(C)c2c(c(OC(C)=O)c1C/C=C/c1c(C)cccc1C(=O)O)C(=O)OC2
2. Cc1ccccc1N1CCN(CCn2c(=O)[nH]c3cscc3c2=O)CC1
3. CCCCc1cc(=O)oc2cc(O)cc(O)c12
4. Nc1cccc(SC(CCc2ccc(Cl)cc2)Cn2ccnc2)c1 (stereo not given)

1: 180 to 183 °C; 2: 214 to 216 °C; 3: 236 to 237 °C; 4: 89 to 91 °C
